Data origin, for the record: the supplement of paper PMC11061612

Tested on: SCC-4 (Oral Cavity Carcinoma)
Experiment: Bliss excess, mean over the matrix (fraction); higher = more synergy
Experimental Endpoint: Bliss excess
Lab note: jot down the number only; don't add units.

Worked set:
Cc1cc2ncnn2cc1Nc1ncc2c(n1)n(C1CCOCC1)c(=O)n2C [AZD7648] + C=CCn1c(=O)c2cnc(Nc3ccc(N4CCN(C)CC4)cc3)nc2n1-c1cccc(C(C)(C)O)n1 [AZD1775] (first compound max 10 µM, partner max 1 µM); -0.0714
C=CCn1c(=O)c2cnc(Nc3ccc(N4CCN(C)CC4)cc3)nc2n1-c1cccc(C(C)(C)O)n1 [AZD1775] + O=C(c1cc(Cc2n[nH]c(=O)c3ccccc23)ccc1F)N1CCN(C(=O)C2CC2)CC1 [Olaparib] (first compound max 1 µM, partner max 10 µM); -0.0341

Using the record for COc1cccc(OCCCN)c1-c1cc(Nc2cnc(C#N)cn2)n[nH]1 [Prexasertib] + C=CCn1c(=O)c2cnc(Nc3ccc(N4CCN(C)CC4)cc3)nc2n1-c1cccc(C(C)(C)O)n1 [AZD1775] (first compound max 1 µM, partner max 1 µM) , report its Bliss excess.
-0.0358

Using the record for C=CCn1c(=O)c2cnc(Nc3ccc(N4CCN(C)CC4)cc3)nc2n1-c1cccc(C(C)(C)O)n1 [AZD1775] + C1CN(CCC1(C(=O)N[C@@H](CCO)C2=CC=C(C=C2)Cl)N)C3=NC=NC4=C3C=CN4 [Capivasertib] (first compound max 3 µM, partner max 3 µM) , report its Bliss excess.
-0.0273

----------
Tested on: NB1 (Neuroblastoma)
Test: Bliss excess, mean over the matrix (fraction); higher = more synergy
Experimental Endpoint: Bliss excess
Lab note: jot down the number only; don't add units.

Worked set:
COc1cccc2c1C(=O)c1c(O)c3c(c(O)c1C2=O)C[C@@](O)(C(=O)CO)C[C@@H]3O[C@H]1C[C@H](N)[C@H](O)[C@H](C)O1 [Doxorubicin] + Cc1cc2ncnn2cc1Nc1ncc2c(n1)n(C1CCOCC1)c(=O)n2C [AZD7648] (first compound max 1 µM, 7x7, partner max 10 µM); 0.0581
COc1cccc(OCCCN)c1-c1cc(Nc2cnc(C#N)cn2)n[nH]1 [Prexasertib] + CN(C)CCCOc1ccc(-c2ccc3ncc4c(c3c2)n(C2CCOCC2)c(=O)n4C)cn1 [AZD0156] (first compound max 1 µM, 7x7, partner max 1 µM); 0.142

Using the record for C[C@@H](c1ccc2nccn2c1)n1nnc2ncc(-c3cnn(C)c3)nc21 [Savolitinib] + CN(CC[C@H](CSC1=CC=CC=C1)NC2=C(C=C(C=C2)S(=O)(=O)NC(=O)C3=CC=C(C=C3)N4CCC(CC4)[C@H](C5=CC=CC=C5C6=CC=C(C=C6)Cl)O)S(=O)(=O)C(F)(F)F)CCO [AZD4320] (first compound max 1 µM, 7x7, partner max 1 µM) , report its Bliss excess.
-0.0318

Using the record for CC1(C)CCC(CN2CCN(c3ccc(C(=O)NS(=O)(=O)c4ccc(NCC5CCOCC5)c([N+](=O)[O-])c4)c(Oc4cnc5[nH]ccc5c4)c3)CC2)=C(c2ccc(Cl)cc2)C1 [Venetoclax] + Cc1cc2ncnn2cc1Nc1ncc2c(n1)n(C1CCOCC1)c(=O)n2C [AZD7648] (first compound max 1 µM, 7x7, partner max 10 µM) , report its Bliss excess.
-0.0358

Using the record for CN(CCO)CC[C@H](CSc1ccccc1)Nc1ccc(S(=O)(=O)NC(=O)c2ccc(N3CCC([C@@H](O)c4ccccc4-c4ccc(Cl)cc4)CC3)cc2)cc1S(=O)(=O)C(F)(F)F [AZD4320] + C[C@@H](Nc1cc(F)cc(F)c1)c1cc(C(=O)N(C)C)cc2c(=O)cc(N3CCOCC3)oc12 [AZD8186] (first compound max 1 µM, 7x7, partner max 3 µM) , report its Bliss excess.
-0.0033

Using the record for C=CCn1c(=O)c2cnc(Nc3ccc(N4CCN(C)CC4)cc3)nc2n1-c1cccc(C(C)(C)O)n1 [AZD1775] + C1CN(CCC1(C(=O)N[C@@H](CCO)C2=CC=C(C=C2)Cl)N)C3=NC=NC4=C3C=CN4 [Capivasertib] (first compound max 3 µM, partner max 3 µM) , report its Bliss excess.
-0.0592

----------
Tested on: OAW-28 (Ovarian Carcinoma)
Experiment: combination Emax (second highest fraction inhibited in the dose matrix, 72 h); higher = more inhibition; extreme values may be limits of the assay
Experimental Endpoint: combination Emax

Worked set:
Cc1cc2ncnn2cc1Nc1ncc2c(n1)n(C1CCOCC1)c(=O)n2C [AZD7648] + C=CCn1c(=O)c2cnc(Nc3ccc(N4CCN(C)CC4)cc3)nc2n1-c1cccc(C(C)(C)O)n1 [AZD1775] (first compound max 10 µM, partner max 1 µM); 0.401
COc1nnc2ccc(N3CCC(c4ccc(OCCN5CCN(C)C(=O)[C@H]5C)cc4)CC3)nn12 [AZD5153] + CC1(C)CCC(CN2CCN(c3ccc(C(=O)NS(=O)(=O)c4ccc(NCC5CCOCC5)c([N+](=O)[O-])c4)c(Oc4cnc5[nH]ccc5c4)c3)CC2)=C(c2ccc(Cl)cc2)C1 [Venetoclax] (first compound max 1 µM, 7x7, partner max 1 µM); 0.352
CC1(C)CCC(CN2CCN(c3ccc(C(=O)NS(=O)(=O)c4ccc(NCC5CCOCC5)c([N+](=O)[O-])c4)c(Oc4cnc5[nH]ccc5c4)c3)CC2)=C(c2ccc(Cl)cc2)C1 [Venetoclax] + C[C@@H]1COCCN1C2=NC(=NC(=C2)C3(CC3)[S@](=N)(=O)C)C4=C5C=CNC5=NC=C4 [AZD6738] (first compound max 1 µM, 7x7, partner max 10 µM); 0.472
CC1(C)CCC(CN2CCN(c3ccc(C(=O)NS(=O)(=O)c4ccc(NCC5CCOCC5)c([N+](=O)[O-])c4)c(Oc4cnc5[nH]ccc5c4)c3)CC2)=C(c2ccc(Cl)cc2)C1 [Venetoclax] + Cn1cnc2c(F)c(Nc3ccc(Br)cc3Cl)c(C(=O)NOCCO)cc21 [Selumetinib] (first compound max 1 µM, 7x7, partner max 3 µM); 0.284
CN(CCO)CC[C@H](CSc1ccccc1)Nc1ccc(S(=O)(=O)NC(=O)c2ccc(N3CCC([C@@H](O)c4ccccc4-c4ccc(Cl)cc4)CC3)cc2)cc1S(=O)(=O)C(F)(F)F [AZD4320] + C[C@@H](Nc1cc(F)cc(F)c1)c1cc(C(=O)N(C)C)cc2c(=O)cc(N3CCOCC3)oc12 [AZD8186] (first compound max 1 µM, 7x7, partner max 3 µM); 0.991

With those in mind, consider the next compound.
Using the record for Cc1c2c(nn1C)CSCc1cc(n(C)n1)CSc1cc(c3ccccc3c1)OCCCc1c(C(=O)O)n(C)c3c-2c(Cl)ccc13 [AZD5991] + C[C@@H]1COCCN1C2=NC(=NC(=C2)C3(CC3)[S@](=N)(=O)C)C4=C5C=CNC5=NC=C4 [AZD6738] (first compound max 1 µM, 7x7, partner max 10 µM) , report its combination Emax.
0.52

----------
Tested on: SNU-423 (Hepatocellular Carcinoma)
Experiment: Bliss excess, mean over the matrix (fraction); higher = more synergy
Bliss excess reference
Lab note: jot down the number only; don't add units.

Cc1c2c(nn1C)CSCc1cc(n(C)n1)CSc1cc(c3ccccc3c1)OCCCc1c(C(=O)O)n(C)c3c-2c(Cl)ccc13 [AZD5991] + CS(=O)(=O)CCNCc1ccc(-c2ccc3ncnc(Nc4ccc(OCc5cccc(F)c5)c(Cl)c4)c3c2)o1 [Lapatinib] (first compound max 1 µM, 7x7, partner max 10 µM); -0.0272

With those in mind, consider the next molecule.
Using the record for COc1nnc2ccc(N3CCC(c4ccc(OCCN5CCN(C)C(=O)[C@H]5C)cc4)CC3)nn12 [AZD5153] + C=CCn1c(=O)c2cnc(Nc3ccc(N4CCN(C)CC4)cc3)nc2n1-c1cccc(C(C)(C)O)n1 [AZD1775] (first compound max 1 µM, partner max 1 µM) , report its Bliss excess.
-0.0459

----------
Tested on: SNU-407 (Colorectal Carcinoma)
Assay: Bliss excess, mean over the matrix (fraction); higher = more synergy
Cut-off -0.03 on Bliss excess, inclusive. At or above means t; below means f.

Check this molecule for Bliss excess at or above -0.03: Cn1cnc2c(F)c(Nc3ccc(Br)cc3Cl)c(C(=O)NOCCO)cc21 [Selumetinib] + C=CCn1c(=O)c2cnc(Nc3ccc(N4CCN(C)CC4)cc3)nc2n1-c1cccc(C(C)(C)O)n1 [AZD1775] (first compound max 10 µM, partner max 1 µM)
t

----------
Bliss excess reference
Tested on: C-33-A (Cervical Carcinoma)
Assay: Bliss excess, mean over the matrix (fraction); higher = more synergy
Lab note: jot down the number only; don't add units.

CC1(C)CCC(CN2CCN(c3ccc(C(=O)NS(=O)(=O)c4ccc(NCC5CCOCC5)c([N+](=O)[O-])c4)c(Oc4cnc5[nH]ccc5c4)c3)CC2)=C(c2ccc(Cl)cc2)C1 [Venetoclax] + C[C@@H]1COCCN1C2=NC(=NC(=C2)C3(CC3)[S@](=N)(=O)C)C4=C5C=CNC5=NC=C4 [AZD6738] (first compound max 1 µM, 7x7, partner max 10 µM); -0.0127

Using the record for COc1cccc(OCCCN)c1-c1cc(Nc2cnc(C#N)cn2)n[nH]1 [Prexasertib] + C=CCn1c(=O)c2cnc(Nc3ccc(N4CCN(C)CC4)cc3)nc2n1-c1cccc(C(C)(C)O)n1 [AZD1775] (first compound max 1 µM, partner max 1 µM) , report its Bliss excess.
0.0983
